Readings of AMBEL herbicidal rating for the listed compounds
Test system: AMBEL (Ragweed, Common)
assay: Postemergence herbicidal evaluation
Assay type: in vivo, Ambrosia artemisifolia
condition: postemergence, rate 0.0313 kg/ha
quantity-kind: AMBEL herbicidal rating

> print(dat)
                                   compound  result
1  CN1C(=O)CS/C1=N/c1cc(-n2c(=O)cc(C(F)(F)F)n(C)c2=O)c(F)cc1Cl [Compound 7]     5.0
2  CCOC(=O)CN1C(=O)C(CC(=O)NO)S/C1=N/c1cc(-n2c(=O)cc(C(F)(F)F)n(C)c2=O)c(F)cc1Cl (stereo not shown) [Compound 98]     3.0
3  Cn1c(C(F)(F)F)cc(=O)n(-c2cc(N=C3SCC(=O)N3Cc3ccccc3)c(Cl)cc2F)c1=O [Compound 26]     8.0
4  C=CCN1C(=O)C(CC(=O)NS(C)(=O)=O)SC1=Nc1cc(-n2c(=O)cc(C(F)(F)F)n(C)c2=O)c(F)cc1Cl (stereo not shown) [Compound 96]     4.0
